AlphaLISA IC50, - HSA: recorded values
Molecular target: T1, recombinant human ADAMTS5 (R&D Systems cat #2198-AD) (human, UniProt Q9UNA0 262-622, limits assumed)
T1 sequence: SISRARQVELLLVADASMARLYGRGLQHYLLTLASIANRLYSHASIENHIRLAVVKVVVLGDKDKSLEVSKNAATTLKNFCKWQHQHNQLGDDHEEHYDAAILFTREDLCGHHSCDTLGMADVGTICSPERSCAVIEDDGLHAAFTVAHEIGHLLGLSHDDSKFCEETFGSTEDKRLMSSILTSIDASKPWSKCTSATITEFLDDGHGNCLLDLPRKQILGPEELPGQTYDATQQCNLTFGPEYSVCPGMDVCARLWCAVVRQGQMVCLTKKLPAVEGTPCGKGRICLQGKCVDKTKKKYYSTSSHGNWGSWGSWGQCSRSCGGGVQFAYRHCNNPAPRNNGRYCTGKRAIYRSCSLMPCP
Experiment: cell-based or functional assay

>  <binder>
Nanobody 049 (11B06 (N52S)) (VHH, N-glycosylation motif knocked out; also called construct 049) VHH: EVQLVESGGGLVQAGGSLRLSCAASGLTFRRNAMGWFRQAPGKERELLAGISWSGGTTYYVDSVKGRFTISRDNAKNTVDLQMISPKPEDTAVYYCAADGDIGTLVNDENPRYWGQGTLVTVSS

>  <AlphaLISA IC50, - HSA>
0.1 nM

$$$$
>  <binder>
Nanobody 9D03 (VHH, tagged as tested (anti-Flag detection, IMAC); also called 09D03; 9D3) VHH: EVQLVESGGGLVQSGGSLRLSCAASGSAVSVNAMAWYRQAPGKQRDFVAGISRSAGRTYYTDSVKDRFTIARDSAKNTVYLQMNRLKPEDTAVYYCAADLDPNRIFSRDEAAYWGQGTLVTVSS

>  <AlphaLISA IC50, - HSA>
0.11 nM

$$$$
